Data credit: patent US8129366B2

Overview of recorded solubility for various molecules
method notes: Solubility test in first and second liquid of the Japanese Pharmacopoeia
condition label: first liquid of the Japanese Pharmacopoeia (JP1), pH 1.2, simulated gastric fluid, Solubility, First liquid of Japanese Pharmacopoeia (μg/mL), JP1, pH=1.2
attribute measured: solubility (µg/mL)

>>> val("Cn1cc(C(=O)Nc2cc(F)c(CC(=O)N3C[C@@H](N4CC(C)(C)C4)C[C@H]3CO[C@H]3CC[C@H](C(=O)O)CC3)cc2Cl)c2ccccc21 [Example 14]")
1100
>>> val("O=C(Nc1cc(Cl)c(CC(=O)N2C[C@@H](N3C[C@@H]4OCO[C@@H]4C3)C[C@H]2CO[C@H]2CC[C@H](C(=O)O)CC2)cc1Cl)c1coc2ccccc12 [Example 73]")
1000
>>> val("C[C@@H]1CN([C@H]2C[C@@H](CO[C@H]3CC[C@H](C(=O)O)CC3)N(C(=O)Cc3ccc(NC(=O)c4nn(C)c5ccccc45)c(Cl)c3)C2)C[C@H](C)O1 [Example 88]")
1100
>>> val("CO[C@H]1CN([C@H]2C[C@@H](CO[C@H]3CC[C@H](C(=O)O)CC3)N(C(=O)Cc3cc(Cl)c(NC(=O)c4coc5ccccc45)cc3Cl)C2)C[C@@H]1OC [Example 54]")
1000
>>> val("O=C(Nc1cc(F)c(CC(=O)N2C[C@@H](N3CC(N4CCCCC4)C3)C[C@H]2CO[C@H]2CC[C@H](C(=O)O)CC2)cc1Cl)c1csc2ccccc12 [Example 28]")
1100
>>> val("O=C(Nc1cc(F)c(CC(=O)N2C[C@@H](N3CC(N4CCOCC4)C3)C[C@H]2CO[C@H]2CC[C@H](C(=O)O)CC2)cc1Cl)c1csc2ccccc12 [Example 27]")
1000
>>> val("Cn1cc(C(=O)Nc2cc(Cl)c(CC(=O)N3C[C@@H](N4CC(C)(C)C4)C[C@H]3CO[C@H]3CC[C@H](C(=O)O)CC3)cc2Cl)c2ccccc21 [Example 15]")
1100
>>> val("COC[C@@H]1C[C@H](OC)CN1[C@H]1C[C@@H](CO[C@H]2CC[C@H](C(=O)O)CC2)N(C(=O)Cc2cc(Cl)c(NC(=O)c3cn(C)c4ccccc34)cc2Cl)C1 [Example 46]")
1200
>>> val("CCO[C@H]1CN([C@H]2C[C@@H](CO[C@H]3CC[C@H](C(=O)O)CC3)N(C(=O)Cc3cc(Cl)c(NC(=O)c4cn(C)c5ccccc45)cc3Cl)C2)C[C@H]1OCC [Example 63]")
1000
